Target: T1, Bfl-1, Q16548
T1 chain: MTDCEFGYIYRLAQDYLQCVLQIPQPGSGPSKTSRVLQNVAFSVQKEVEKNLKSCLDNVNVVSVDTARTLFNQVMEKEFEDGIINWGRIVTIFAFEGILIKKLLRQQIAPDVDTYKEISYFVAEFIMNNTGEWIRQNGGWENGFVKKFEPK
Assay: peptide SPOT array, c-Myc-tagged receptor at 1 uM or 100 nM, anti-c-Myc-Cy3
MEASURED ATTRIBUTE: SPOT signal as a fraction of Bim BH3's signal on the same receptor and array
Just the number, please, no unit attached.

AEVMRQRGINDRYLGKVLELVLRSPA [KIAA0664]: 0.49
ALNAQPSAEELSKIADSVNLPLDVVK [ZEB1]: 0.01
PDKRLTLSQIYQYVLDNFPFYNKSKA [FOXI1]: 0.41
KLALEQRCRELRARGRRLEETLPRRI: 0.62
TRELQELARKLQELADASENLLTENT [TXNDC11]: 0.01
KLALEQRCREDRARGRRLEETLPRRI: 0.43
GGRVKLVHSALIQLLDSLSHKGNEFW [WDR60]: 0.23
RVCPYYLSRNLKQQADIIFMPYNYLL: 0.72
ISSYMVLAPVDGYLGDRYNRKYLMCG [SPNS1]: 0.68
NGGLLEFHKSLQEILDKNDHWFDIDP [DZIP3]: 0.05

Now consider a different binder.
State, in one line, measured SPOT signal as a fraction of Bim BH3's signal on the same receptor and array of HHSSQEMSSEYREYADSFGKCPGGRN [PCYT2]
0.03
